Just for reference, patent US20140155389A1 is where these values come from.

// each record: one item and its Ki for ALK (Homo sapiens)
One number for each entry, in nM.

These solved cases illustrate the format of a correct answer.
O=c1[nH]ncc2cc(Cc3c(Cl)cccc3Cl)nc(Nc3c(F)cc(N4CCNCC4)cc3F)c12 [Example 42] ... 25
COc1cc(N2CCN(C(=O)CN(C)C)CC2)ccc1Nc1nc(Cc2c(Cl)cccc2Cl)cc2cnnc(O)c12 [Example 12] ... 3
COc1cc(N2CCNCC2)ccc1Nc1nc(Nc2ccncc2Cl)cc2cn[nH]c(=O)c12 [Example 60] ... 3

Give me Ki for each of these compounds, listed below.
1. Cc1cc(Nc2nc(Cc3c(Cl)cccc3Cl)cc3cn[nH]c(=O)c23)c(F)cc1N1CCNCC1 [Example 73]
2. COc1cc(N2CCNCC2)ccc1Nc1nc(Nc2cccnc2)cc2cn[nH]c(=O)c12 [Example 44]
3. COc1cc2c(cc1Nc1cc(Cc3ccccc3Cl)nc3cnnc(O)c13)CNCC2 [Example 91]

Reply |
1: 1; 2: 13; 3: 55

Quick note, Ki for COc1cc(N2CCNCC2)ccc1Nc1nc(N2CCCCC2)cc2cn[nH]c(=O)c12 [Example 39] landed at 7

----------
- studyTarget: ALK (Homo sapiens)
- Sequence (Q9UM73 19-1620): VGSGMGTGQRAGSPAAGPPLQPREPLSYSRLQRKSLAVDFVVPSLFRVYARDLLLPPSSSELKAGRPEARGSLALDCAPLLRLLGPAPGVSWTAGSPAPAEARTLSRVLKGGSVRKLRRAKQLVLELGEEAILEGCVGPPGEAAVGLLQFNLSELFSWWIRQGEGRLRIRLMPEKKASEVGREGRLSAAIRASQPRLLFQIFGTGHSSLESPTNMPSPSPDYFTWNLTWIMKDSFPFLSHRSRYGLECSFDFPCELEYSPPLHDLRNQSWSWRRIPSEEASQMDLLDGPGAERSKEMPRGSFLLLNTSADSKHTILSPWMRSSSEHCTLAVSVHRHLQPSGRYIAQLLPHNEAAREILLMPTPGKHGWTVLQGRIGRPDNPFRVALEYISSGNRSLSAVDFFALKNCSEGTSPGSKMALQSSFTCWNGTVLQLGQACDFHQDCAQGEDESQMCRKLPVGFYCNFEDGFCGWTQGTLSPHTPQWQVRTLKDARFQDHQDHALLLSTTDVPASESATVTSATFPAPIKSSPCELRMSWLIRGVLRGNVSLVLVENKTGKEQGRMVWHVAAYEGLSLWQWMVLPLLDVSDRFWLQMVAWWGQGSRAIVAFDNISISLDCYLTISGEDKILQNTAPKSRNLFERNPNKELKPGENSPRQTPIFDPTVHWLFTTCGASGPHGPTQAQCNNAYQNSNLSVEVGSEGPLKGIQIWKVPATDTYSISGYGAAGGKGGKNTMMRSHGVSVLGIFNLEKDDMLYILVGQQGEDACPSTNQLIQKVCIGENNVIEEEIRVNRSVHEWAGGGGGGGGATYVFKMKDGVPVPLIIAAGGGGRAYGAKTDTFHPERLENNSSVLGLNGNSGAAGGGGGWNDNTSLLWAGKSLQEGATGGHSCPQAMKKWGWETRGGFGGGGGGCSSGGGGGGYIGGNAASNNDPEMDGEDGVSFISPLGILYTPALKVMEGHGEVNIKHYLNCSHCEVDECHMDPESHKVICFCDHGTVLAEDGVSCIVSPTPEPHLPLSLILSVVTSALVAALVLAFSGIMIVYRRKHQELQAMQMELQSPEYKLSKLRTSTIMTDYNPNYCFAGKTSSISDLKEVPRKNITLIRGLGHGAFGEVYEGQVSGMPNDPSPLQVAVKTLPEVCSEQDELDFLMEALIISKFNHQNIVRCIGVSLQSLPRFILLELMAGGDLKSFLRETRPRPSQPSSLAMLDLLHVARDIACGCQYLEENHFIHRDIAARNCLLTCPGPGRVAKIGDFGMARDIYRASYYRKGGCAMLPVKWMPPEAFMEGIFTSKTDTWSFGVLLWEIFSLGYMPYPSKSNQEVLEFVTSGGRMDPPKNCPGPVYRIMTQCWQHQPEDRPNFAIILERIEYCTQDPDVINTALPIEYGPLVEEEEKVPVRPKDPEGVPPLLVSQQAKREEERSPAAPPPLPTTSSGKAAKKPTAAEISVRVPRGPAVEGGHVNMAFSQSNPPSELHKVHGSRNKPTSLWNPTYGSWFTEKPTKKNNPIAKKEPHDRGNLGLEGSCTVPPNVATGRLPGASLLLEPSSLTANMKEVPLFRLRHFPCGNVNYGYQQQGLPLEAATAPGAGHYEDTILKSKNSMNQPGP
pKi: −log10 of the molar value.
Assign condition met whenever pKi does not fall below 8; assign condition not met whenever it does.

Ask | Hi, just wondering whether COc1cc2c(cc1Nc1nc(Cc3c(Cl)cccc3Cl)cc3cn[nH]c(=O)c13)CCNC2 [Example 88] shows pKi of 8 or higher.
Reply | condition met

Ask | Hi, just wondering whether COc1cc(N2CCNCC2)ccc1Nc1nc(Nc2ccc(F)c(Cl)c2Cl)cc2cnnc(O)c12 [Example 67] shows pKi of 8 or higher.
Reply | condition met

----------
- studyTarget: ALK (Homo sapiens)
quantityKind: Ki (nM)
Give bare numbers, in nM.

COc1cc(N2CCNCC2)ccc1Nc1nc(Nc2cc(Cl)ccc2F)cc2cn[nH]c(=O)c12 ... 6
COc1cc(N2CCNCC2)ccc1Nc1nc(Oc2ccccc2F)cc2cnnc(O)c12 ... 4
COc1cc(N2CCNCC2)ccc1Nc1nc(Oc2c(Cl)cccc2Cl)cc2cn[nH]c(=O)c12 ... 1

Give me Ki for each of these compounds, listed below.
1. COc1cc(N2CCNCC2)ccc1Nc1nc(Nc2ccccc2F)cc2cn[nH]c(=O)c12
2. O=c1[nH]ncc2cc(Cc3c(Cl)cccc3Cl)nc(Nc3ccc(N4CCNCC4)cn3)c12
3. COc1cc(CN2CCN(C)CC2)ccc1Nc1cc(Cc2ccccc2Cl)nc2cn[nH]c(=O)c12
4. COc1cc(N2CCNCC2)ccc1Nc1nc(Nc2ccc(Cl)cc2Cl)cc2cnnc(O)c12

Reply |
4
13
33
4

----------
// each record: one item and its pKi for ALK (Homo sapiens, UniProt Q9UM73)
One number for each entry, as −log10 of the molar value.

These solved cases illustrate the format of a correct answer.
Oc1nncc2cc(Cc3c(Cl)cccc3Cl)nc(Nc3ccc(N4CCNCC4)cc3OC(F)(F)F)c12 ... 7.68
COc1cc(C2CCNCC2)ccc1Nc1nc(Oc2ccccc2Cl)cc2cnnc(O)c12 ... 8.05
COc1cc(N2CCNCC2)ccc1Nc1nc(Oc2c(Cl)cc(F)cc2Cl)cc2cn[nH]c(=O)c12 ... 9.00

Give me pKi for each of these compounds, listed below.
1. COc1cc(N2CCNCC2)ccc1Nc1nc(Nc2ccc(Cl)c(Cl)c2Cl)cc2cn[nH]c(=O)c12
2. COc1ccccc1Nc1nc(Nc2ccc(N3CCNCC3)cc2)cc2cnnc(O)c12
3. O=c1[nH]ncc2cc(Cc3c(Cl)cccc3Cl)nc(Nc3ccc(N4CCNCC4)c(Cl)c3)c12
4. COc1cc(N2CCNCC2)ccc1Nc1nc(Cc2c(Cl)cccc2Cl)cc2cnnc(O)c12
5. COc1cc(N2CCNCC2)ccc1Nc1nc(NC2CCCCC2)cc2cn[nH]c(=O)c12
6. COc1cc(CN2CCNCC2)ccc1Nc1cc(Cc2ccccc2Cl)nc2cn[nH]c(=O)c12
7. O=c1[nH]ncc2cc(Oc3ccccc3Cl)nc(Nc3ccc(C4CCNCC4)cn3)c12
8. COc1cc(N2CCNCC2)ccc1Nc1nc(Nc2c(Cl)cc(F)cc2Cl)cc2cnnc(O)c12

Reply |
[8.40, 7.24, 9.00, 8.85, 8.52, 7.82, 7.82, 9.00]

Give me pKi for each of these compounds, listed below.
1. COc1cc(N2CCNCC2)ccc1Nc1nc(Oc2ccc(Cl)c(Cl)c2Cl)cc2cnnc(O)c12
2. COc1cc(N2CCNCC2)ccc1Nc1nc(Nc2ccccc2S(=O)(=O)C(C)C)cc2cn[nH]c(=O)c12
3. CCOc1cc(C2CCNCC2)ccc1Nc1nc(Oc2ccccc2Cl)cc2cn[nH]c(=O)c12
4. Cc1cc(N2CCNCC2)cc(C)c1Nc1nc(Cc2c(Cl)cccc2Cl)cc2cnnc(O)c12
5. COc1cc(N2CCNCC2)ccc1Nc1nc(Nc2cccc(Cl)c2Cl)cc2cn[nH]c(=O)c12

Reply |
1. 8.30
2. 8.70
3. 7.68
4. 6.43
5. 8.70
